The origin of these recorded values is patent US20250242064A1.

assay: in vivo; parameters: species or system mice; details: male, NOD.Cg-Rag1tm1Mom Il2rgtm1Wjl/SzJ (NRG), mouse, iv, total radioactivity, Biodistribution: Z138 Tumor
Where a SMILES comes first, the peptide text is derived from it. Bridges are numbered along the chain shown (N, C = ends). Side-chain parts run from the residue outwards. [ ]: non-standard residue; d: D form. The star is where a group is joined. X3 = O=C(O)CN1CCN(CC(=O)O)CCN(CC(=O)N[C@@H](CS(=O)(=O)O)C(=O)N[C@@H](CCCCNC(=O)CCCc2ccc(Br)cc2)C(=O)*)CCN(CC(=O)O)CC1; X1 = O=C(O)CN1CCN(CC(=O)O)CCN(CC(=O)N[C@@H](CS(=O)(=O)O)C(=O)N[C@@H](CCCCNC(=O)CCCc2ccc(I)cc2)C(=O)*)CCN(CC(=O)O)CC1; X7 = COc1ccc(CCCC(=O)NCCCC[C@H](NC(=O)CN2CCN(CC(=O)O)CCN(CC(=O)O)CCN(CC(=O)O)CC2)C(=O)*)cc1; 2Nal = N[C@@H](Cc1ccc2ccccc2c1)C(=O)O; Lys(iPr) = CC(C)NCCCC[C@H](N)C(=O)O; Cya = N[C@@H](CS(=O)(=O)O)C(=O)O
Exercise: state measured tissue uptake at 1 h for each of the molecules provided.
Numbers only, in %ID/g.

Please report tissue uptake at 1 h for every entry that follows.
1. CC(C)NCCCC[C@H](NC(=O)[C@H]1CCC(=O)N[C@@H](CCCCNC(=O)[C@H](CCCCNC(=O)CCCc2ccc(I)cc2)NC(=O)[C@H](CS(=O)(=O)O)NC(=O)CN2CCN(CC(=O)O)CCN(CC(=O)O)CCN(CC(=O)O)CC2)C(=O)N[C@@H](Cc2ccc(O)cc2)C(=O)N[C@@H](CCCCNC(C)C)C(=O)N[C@H](CCCNC(=N)N)C(=O)N[C@@H](Cc2ccc3ccccc3c2)C(=O)N[C@H](C)C(=O)N1)C(N)=O [[^68Ga]Ga-BL34L11, metal not drawn] (K(X1)Y[Lys(iPr)][dR][2Nal][dA][dE][Lys(iPr)]-NH2; lactam N-7)
2. COc1ccc(CCCC(=O)NCCCC[C@H](NC(=O)CN2CCN(CC(=O)O)CCN(CC(=O)O)CCN(CC(=O)O)CC2)C(=O)N[C@@H](CS(=O)(=O)O)C(=O)NCCCC[C@@H]2NC(=O)CC[C@H](C(=O)N[C@@H](CCCCNC(C)C)C(N)=O)NC(=O)[C@@H](C)NC(=O)[C@H](Cc3ccc4ccccc4c3)NC(=O)[C@@H](CCCNC(=N)N)NC(=O)[C@H](CCCCNC(C)C)NC(=O)[C@H](Cc3ccc(O)cc3)NC2=O)cc1 [[68Ga]Ga-BL34L6, metal not drawn] (K([Cya-X7])Y[Lys(iPr)][dR][2Nal][dA][dE][Lys(iPr)]-NH2; lactam N-7)
3. CC(C)NCCCC[C@H](NC(=O)[C@@H]1CCSc2c3cccc([N+](=O)[O-])c3cn2[C@@H](CCCCNC(=O)[C@H](CS(=O)(=O)O)NC(=O)CN2CCN(CC(=O)O)CCN(CC(=O)O)CCN(CC(=O)O)CC2)C(=O)CC(Cc2ccc(O)cc2)C(=O)N[C@@H](CCCCNC(C)C)C(=O)N[C@H](CCCNC(=N)N)C(=O)N[C@@H](Cc2ccc3ccccc3c2)C(=O)N[C@H](C)C(=O)N1)C(N)=O (stereo partly shown) [[^68Ga]Ga-3NOPA-BL34L2, metal not drawn]
4. CC(C)NCCCC[C@H](NC(=O)[C@H]1CCC(=O)N[C@@H](CCCCNC(=O)[C@H](CCCCNC(=O)CCCc2ccc(Br)cc2)NC(=O)[C@H](CS(=O)(=O)O)NC(=O)CN2CCN(CC(=O)O)CCN(CC(=O)O)CCN(CC(=O)O)CC2)C(=O)N[C@@H](Cc2ccc(O)cc2)C(=O)N[C@@H](CCCCNC(C)C)C(=O)N[C@H](CCCNC(=N)N)C(=O)N[C@@H](Cc2ccc3ccccc3c2)C(=O)N[C@H](C)C(=O)N1)C(N)=O [[^177Lu]Lu-BL34L20, metal not drawn] (K(X3)Y[Lys(iPr)][dR][2Nal][dA][dE][Lys(iPr)]-NH2; lactam N-7)

1: 6.55; 2: 8.92; 3: 7.97; 4: 5.94

* * *

For each entry below, report its tissue uptake at 24 h value.
experiment: in vivo; design: species or system mice; details: male, NOD.Cg-Rag1tm1Mom Il2rgtm1Wjl/SzJ (NRG), mouse, iv, total radioactivity, Biodistribution: Kidneys
Where a SMILES comes first, the peptide text is derived from it. Bridges are numbered along the chain shown (N, C = ends). [ ]: non-standard residue; d: D form. The star is where a group is joined. X3 = O=C(O)CN1CCN(CC(=O)O)CCN(CC(=O)N[C@@H](CS(=O)(=O)O)C(=O)N[C@@H](CCCCNC(=O)CCCc2ccc(Br)cc2)C(=O)*)CCN(CC(=O)O)CC1; X1 = O=C(O)CN1CCN(CC(=O)O)CCN(CC(=O)N[C@@H](CS(=O)(=O)O)C(=O)N[C@@H](CCCCNC(=O)CCCc2ccc(I)cc2)C(=O)*)CCN(CC(=O)O)CC1; 2Nal = N[C@@H](Cc1ccc2ccccc2c1)C(=O)O; Lys(iPr) = CC(C)NCCCC[C@H](N)C(=O)O
Numbers only, in %ID/g.

# compound, tissue uptake at 24 h [%ID/g]
records = [
    ("CC(C)NCCCC[C@H](NC(=O)[C@H]1CCC(=O)N[C@@H](CCCCNC(=O)[C@H](CCCCNC(=O)CCCc2ccc(Br)cc2)NC(=O)[C@H](CS(=O)(=O)O)NC(=O)CN2CCN(CC(=O)O)CCN(CC(=O)O)CCN(CC(=O)O)CC2)C(=O)N[C@@H](Cc2ccc(O)cc2)C(=O)N[C@@H](CCCCNC(C)C)C(=O)N[C@H](CCCNC(=N)N)C(=O)N[C@@H](Cc2ccc3ccccc3c2)C(=O)N[C@H](C)C(=O)N1)C(N)=O [[^177Lu]Lu-BL34L20, metal not drawn] (K(X3)Y[Lys(iPr)][dR][2Nal][dA][dE][Lys(iPr)]-NH2; lactam N-7)", 1.53),
]

Proceeding to the next compound to report its tissue uptake at 24 h.
// lookup tissue uptake at 24 h for CC(C)NCCCC[C@H](NC(=O)[C@H]1CCC(=O)N[C@@H](CCCCNC(=O)[C@H](CCCCNC(=O)CCCc2ccc(I)cc2)NC(=O)[C@H](CS(=O)(=O)O)NC(=O)CN2CCN(CC(=O)O)CCN(CC(=O)O)CCN(CC(=O)O)CC2)C(=O)N[C@@H](Cc2ccc(O)cc2)C(=O)N[C@@H](CCCCNC(C)C)C(=O)N[C@H](CCCNC(=N)N)C(=O)N[C@@H](Cc2ccc3ccccc3c2)C(=O)N[C@H](C)C(=O)N1)C(N)=O [[^177Lu]Lu-BL34L11, metal not drawn] (K(X1)Y[Lys(iPr)][dR][2Nal][dA][dE][Lys(iPr)]-NH2; lactam N-7)
2.67

* * *

assay: in vivo; set-up: species or system mice; details: male, NOD.Cg-Rag1tm1Mom Il2rgtm1Wjl/SzJ (NRG), mouse, iv, total radioactivity, Biodistribution: Stomach
Where a SMILES comes first, the peptide text is derived from it. Bridges are numbered along the chain shown (N, C = ends). [ ]: non-standard residue; d: D form. The star is where a group is joined. X4 = O=C(O)CN1CCN(CC(=O)O)CCN(CC(=O)N[C@@H](CS(=O)(=O)O)C(=O)NCCCC[C@H](NC(=O)CNC(=O)CCCc2ccc(Cl)cc2)C(=O)*)CCN(CC(=O)O)CC1; X3 = O=C(O)CN1CCN(CC(=O)O)CCN(CC(=O)N[C@@H](CS(=O)(=O)O)C(=O)N[C@@H](CCCCNC(=O)CCCc2ccc(Br)cc2)C(=O)*)CCN(CC(=O)O)CC1; X6 = COc1ccc(CCCC(=O)NCCCC[C@H](NC(=O)[C@H](CS(=O)(=O)O)NC(=O)CN2CCN(CC(=O)O)CCN(CC(=O)O)CCN(CC(=O)O)CC2)C(=O)*)cc1; 2Nal = N[C@@H](Cc1ccc2ccccc2c1)C(=O)O; Lys(iPr) = CC(C)NCCCC[C@H](N)C(=O)O
parameter: tissue uptake at 1 h
Dear colleague, please send the value followed by its unit.

Past entries and their recorded results:
# molecule, measured_value
data = [
    ("CC(C)NCCCC[C@H](NC(=O)[C@H]1CCC(=O)N[C@@H](CCCCNC(=O)[C@H](CCCCNC(=O)[C@H](CS(=O)(=O)O)NC(=O)CN2CCN(CC(=O)O)CCN(CC(=O)O)CCN(CC(=O)O)CC2)NC(=O)CNC(=O)CCCc2ccc(Cl)cc2)C(=O)N[C@@H](Cc2ccc(O)cc2)C(=O)N[C@@H](CCCCNC(C)C)C(=O)N[C@H](CCCNC(=N)N)C(=O)N[C@@H](Cc2ccc3ccccc3c2)C(=O)N[C@H](C)C(=O)N1)C(N)=O [[68Ga]Ga-BL34T1, metal not drawn] (K(X4)Y[Lys(iPr)][dR][2Nal][dA][dE][Lys(iPr)]-NH2; lactam N-7)", "0.49 %ID/g"),
    ("CC(C)NCCCC[C@H](NC(=O)[C@@H]1CCSc2c3cccc([N+](=O)[O-])c3cn2[C@@H](CCCCNC(=O)[C@H](CS(=O)(=O)O)NC(=O)CN2CCN(CC(=O)O)CCN(CC(=O)O)CCN(CC(=O)O)CC2)C(=O)CC(Cc2ccc(O)cc2)C(=O)N[C@@H](CCCCNC(C)C)C(=O)N[C@H](CCCNC(=N)N)C(=O)N[C@@H](Cc2ccc3ccccc3c2)C(=O)N[C@H](C)C(=O)N1)C(N)=O (stereo partly shown) [[^68Ga]Ga-3NOPA-BL34L2, metal not drawn]", "0.12 %ID/g"),
]

Hi! Can you tell me tissue uptake at 1 h for each of these molecules?
1. COc1ccc(CCCC(=O)NCCCC[C@H](NC(=O)[C@H](CS(=O)(=O)O)NC(=O)CN2CCN(CC(=O)O)CCN(CC(=O)O)CCN(CC(=O)O)CC2)C(=O)NCCCC[C@@H]2NC(=O)CC[C@H](C(=O)N[C@@H](CCCCNC(C)C)C(N)=O)NC(=O)[C@@H](C)NC(=O)[C@H](Cc3ccc4ccccc4c3)NC(=O)[C@@H](CCCNC(=N)N)NC(=O)[C@H](CCCCNC(C)C)NC(=O)[C@H](Cc3ccc(O)cc3)NC2=O)cc1 [[^68Ga]Ga-BL34L7, metal not drawn] (K(X6)Y[Lys(iPr)][dR][2Nal][dA][dE][Lys(iPr)]-NH2; lactam N-7)
2. CC(C)NCCCC[C@H](NC(=O)[C@H]1CCC(=O)N[C@@H](CCCCNC(=O)[C@H](CCCCNC(=O)CCCc2ccc(Br)cc2)NC(=O)[C@H](CS(=O)(=O)O)NC(=O)CN2CCN(CC(=O)O)CCN(CC(=O)O)CCN(CC(=O)O)CC2)C(=O)N[C@@H](Cc2ccc(O)cc2)C(=O)N[C@@H](CCCCNC(C)C)C(=O)N[C@H](CCCNC(=N)N)C(=O)N[C@@H](Cc2ccc3ccccc3c2)C(=O)N[C@H](C)C(=O)N1)C(N)=O [[^177Lu]Lu-BL34L20, metal not drawn] (K(X3)Y[Lys(iPr)][dR][2Nal][dA][dE][Lys(iPr)]-NH2; lactam N-7)

0.09 %ID/g
0.52 %ID/g
